- Tested on: Escherichia coli TOP10;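 also: peptides expressed intracellularly from a pBAD plasmid library in pooled LB shake-flask culture, induced with 0.3% L-arabinose, DNA abundance read by NGS, three biological replicates, DESeq2 with apeglm shrinkage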
- Method Summary: shrunken log2 fold change of peptide-encoding DNA abundance (4.5 h post-induction vs induction); higher = less antimicrobial activity (less host growth inhibition)
- Details: time post-induction: 4.5 h; library: site-saturation at positions 5, 18, 19, 20
So I've got a bunch of sequences here, and I need their shrunken log2 fold change values.
# output: bare number, no unit

Need shrunken log2 fold change of `RRIRERPPRLPRPRPRPPYYPRP` , thanks.
-0.433

What value of shrunken log2 fold change has been recorded for this entry: `RRIRARPPRLPRPRPRPETQPRP`
1.57

May I ask what shrunken log2 fold change has been recorded for `RRIRIRPPRLPRPRPRPPLEPRP` ?
-0.272

Query (sequence): `RRIRSRPPRLPRPRPRPNNIPRP` ; field requested: shrunken log2 fold change
-0.564

For the sequence shown here, `RRIRFRPPRLPRPRPRPFNGPRP` , give the reported shrunken log2 fold change.
-0.163

Look at this sequence and give its reported shrunken log2 fold change. `RRIRPRPPRLPRPRPRPEMVPRP`
0.191

Any idea what shrunken log2 fold change was measured for `RRIRERPPRLPRPRPRPAYAPRP` ?
0.0657

Which shrunken log2 fold change value is on record for `RRIRARPPRLPRPRPRPVNMPRP` ?
-0.527
